Recorded pIC50 values for a group of molecules are listed next.
# measurement-target: human TrkA receptor (Homo sapiens, UniProt P04629)
# Sequence (P04629 33-796): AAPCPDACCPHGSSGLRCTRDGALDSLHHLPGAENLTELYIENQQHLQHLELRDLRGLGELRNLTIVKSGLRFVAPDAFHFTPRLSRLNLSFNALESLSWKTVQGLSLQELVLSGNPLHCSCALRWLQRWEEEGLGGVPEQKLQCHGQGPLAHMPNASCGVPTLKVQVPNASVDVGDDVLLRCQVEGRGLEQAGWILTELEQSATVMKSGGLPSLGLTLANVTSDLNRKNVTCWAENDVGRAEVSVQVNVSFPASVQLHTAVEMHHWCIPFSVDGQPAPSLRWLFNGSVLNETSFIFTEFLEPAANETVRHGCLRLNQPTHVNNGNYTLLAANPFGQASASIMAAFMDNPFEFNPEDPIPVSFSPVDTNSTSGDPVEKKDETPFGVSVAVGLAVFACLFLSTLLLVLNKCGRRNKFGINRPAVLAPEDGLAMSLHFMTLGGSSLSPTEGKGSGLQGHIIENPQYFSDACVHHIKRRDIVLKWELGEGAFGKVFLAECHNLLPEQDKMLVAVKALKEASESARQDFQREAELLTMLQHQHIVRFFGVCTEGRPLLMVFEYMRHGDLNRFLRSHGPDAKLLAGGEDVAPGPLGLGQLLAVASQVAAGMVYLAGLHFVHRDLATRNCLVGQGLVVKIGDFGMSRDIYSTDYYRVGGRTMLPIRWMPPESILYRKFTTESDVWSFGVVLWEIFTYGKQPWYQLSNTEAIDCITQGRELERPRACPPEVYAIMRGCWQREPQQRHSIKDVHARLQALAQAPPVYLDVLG
# assay-info: DiscoverX PathHunter TrkA functional assay (NGF-stimulated U2OS cells)
# assay-conditions: U2OS cells expressing human TrkA-PK, Shc1-EA and p75NTR; compound 1 h, then NGF at ~80% of maximal response for 3 h; luminescence
pIC50 here: minus log base 10 of the concentration, concentration in moles per litre.

Some entries whose results are on file:
[[record]]
molecule = "Cc1ccnc(-c2cc(C(=O)Nc3c(-c4ccccc4)nc4cc(C(C)(C)O)ccn34)c(Cl)cc2C(F)(F)F)n1 [Compound 71]"
quantitative_result = 8.12

[[record]]
molecule = "COC(=O)NCCc1ccn2c(NC(=O)c3ccc(C(F)(F)F)c(-c4ccn(C)n4)c3)c(-c3ccccc3)nc2c1 [Compound 104]"
quantitative_result = 8.77

[[record]]
molecule = "Cn1ccc(-c2cc(C(=O)Nc3c(-c4ccccc4)nc4cc(C(C)(C)O)ccn34)ccc2C(F)(F)F)n1 [Compound 27]"
quantitative_result = 8.74

[[record]]
molecule = "O=C(Nc1c(-c2ccccc2)nc2ccccn12)c1ccc(C(F)(F)F)c(-c2ccn(C(F)F)n2)c1 [Compound 11]"
quantitative_result = 8.49

[[record]]
molecule = "C[C@@H](O)c1ccn2c(NC(=O)c3cc(-c4ccn(C)n4)c(C(F)(F)CF)cc3F)c(-c3ccccc3)nc2c1 [Compound 115]"
quantitative_result = 8.43


Exam item: Returns the measured pIC50 for the input molecule. Input: O=C(Nc1c(-c2ccno2)nc2ccccn12)c1ccc(C(F)(F)F)cc1F [Compound 10]
Marked response: 5.72

Exam item: // returns reported pIC50 for input Cn1ccc(-c2cc(C(=O)Nc3c(-c4ccccc4)nc4ccc(C(O)CO)cn34)ccc2C(F)(F)F)n1 (single isomer, unassigned) [Compound 52]
Marked response: 8.31

Exam item: For CC(O)c1ccn2c(NC(=O)c3ccc(C(F)(F)F)c(-c4ccn(C(F)F)n4)c3)c(-c3ccccc3)nc2c1 (single isomer, unassigned) [Compound 77] , what is its reported pIC50?
Marked response: 8.40

Exam item: Name the reported pIC50 value associated with the molecule CC(O)c1ccc2[nH]c(-c3ccccc3)c(NC(=O)c3cc(-c4ccn(C)n4)c(C(F)(F)F)cc3F)c2c1 (single isomer, unassigned) [Compound 112]
Marked response: 8.85

---

Overview of reported IC50 across a group of molecules:
# measurement-target: UniProt P04629
# assay-info: DiscoverX PathHunter TrkA functional assay (NGF-stimulated U2OS cells)
# assay-conditions: U2OS cells expressing human TrkA-PK, Shc1-EA and p75NTR; compound 1 h, then NGF at ~80% of maximal response for 3 h; luminescence
Could you give me the number in nM? Just the number is fine.

[[record]]
molecule = "Cn1ccc(-c2cc(C(=O)Nc3c(-c4ccccc4)nc4cc(CO)ccn34)ccc2C(F)(F)F)n1 [Compound 26]"
quantitative_result = 1.4

[[record]]
molecule = "CC(O)c1ccn2nc(-c3ccccc3)c(NC(=O)c3ccc(C(F)(F)F)c(-c4ccn(C)n4)c3)c2c1 (single isomer, unassigned) [Compound 97]"
quantitative_result = 1.9

[[record]]
molecule = "CC(O)c1ccn2c(NC(=O)c3ccc(C(F)(F)F)c(-c4ncccn4)c3)c(-c3ccccc3)nc2c1 (single isomer, unassigned) [Compound 67]"
quantitative_result = 5.1

[[record]]
molecule = "Cn1ccc(-c2cc(C(=O)Nc3c(-c4ccccc4)[nH]c4ccc(C#N)cc34)c(F)cc2C(F)(F)F)n1 [Compound 108]"
quantitative_result = 1


Exam item: Returns the measured IC50 for the input molecule. Input: Cn1ccc(-c2cc(C(=O)Nc3c(-c4ccccc4)nc4sccn34)ccc2C(F)(F)F)n1 [Compound 12]
Marked response: 1.9

Exam item: Form field: reported IC50 of Cn1ccc(-c2cc(C(=O)Nc3c(-c4ccccc4)nc4cc(CCN)ccn34)ccc2C(F)(F)F)n1 [Compound 100]
Marked response: 13

Exam item: Please look up its IC50: Cn1ccc(-c2cc(C(=O)Nc3c(-c4ccccc4)nc4cc(C(O)C(F)(F)F)ccn34)ccc2C(F)(F)F)n1 (single isomer, unassigned) [Compound 64]
Marked response: 1.1

These entries and their values trace back to patent US9862716B2.
